Values were extracted from ChEMBL document CHEMBL6083202.

Experiment: Cytotoxicity against human HepG2 cells
Type: toxicity, cell-based
measuredMetric: IC50 (µg/mL)
Give bare numbers, in µg/mL.

Q. // query IC50 value for entry Cc1c(O)c(C)c2c(c1O)C(=O)OC(C)(O)[C@H]2C (stereo partly specified)
A. 3.91

----------
Assay: Selectivity index, ratio of IC50 for human A549 cells to IC50 for chloroquine-sensitive Plasmodium falciparum FCR3
Format: toxicity, cell-based
Settings: read-out: Ratio IC50
measuredMetric: selectivity ratio
Give bare numbers.

Q. // query selectivity ratio value for entry Cc1c(O)c(C)c2c(c1O)C(=O)OC(C)(O)[C@H]2C (stereo partly specified)
A. 25.6

----------
Experiment: Selectivity index, ratio of IC50 for human MRC5 cells to IC50 for chloroquine-sensitive Plasmodium falciparum FCR3
Format: toxicity, cell-based
Details: read-out: Ratio IC50
measuredMetric: selectivity ratio
One number for each entry.

Q. // query selectivity ratio value for entry Cc1c(O)c(C)c2c(c1O)C(=O)OC(C)(O)[C@H]2C (stereo partly specified)
A. 2

----------
Experiment: Selectivity index, ratio of IC50 for human HeLa cells to IC50 for chloroquine-sensitive Plasmodium falciparum FCR3
Format: toxicity, cell-based
Details: read-out: Ratio IC50
measuredMetric: selectivity ratio
One number for each entry.

Q. // query selectivity ratio value for entry Cc1c(O)c(C)c2c(c1O)C(=O)OC(C)(O)[C@H]2C (stereo partly specified)
A. 15.9

----------
Assay: Cytotoxicity against human A549 cells
Assay type: toxicity, cell-based
measuredMetric: IC50 (µg/mL)
Give bare numbers, in µg/mL.

Q. // query IC50 value for entry Cc1c(O)c(C)c2c(c1O)C(=O)OC(C)(O)[C@H]2C (stereo partly specified)
A. 15.9

----------
Assay: Cytotoxicity against human MRC5 cells
Type: toxicity, cell-based
measuredMetric: IC50 (µg/mL)
Give bare numbers, in µg/mL.

Q. // query IC50 value for entry Cc1c(O)c(C)c2c(c1O)C(=O)OC(C)(O)[C@H]2C (stereo partly specified)
A. 1.2

----------
Experiment: Selectivity index, ratio of IC50 for human HepG2 cells to IC50 for chloroquine-resistant Plasmodium falciparum K1
Assay type: toxicity, cell-based
Settings: read-out: Ratio IC50
measuredMetric: selectivity ratio
One number for each entry.

Q. // query selectivity ratio value for entry Cc1c(O)c(C)c2c(c1O)C(=O)OC(C)(O)[C@H]2C (stereo partly specified)
A. 4.49

----------
Experiment: Selectivity index, ratio of IC50 for human HeLa cells to IC50 for chloroquine-resistant Plasmodium falciparum K1
Assay type: toxicity, cell-based
Conditions: read-out: Ratio IC50
measuredMetric: selectivity ratio
Answers are plain numbers.

Q. // query selectivity ratio value for entry Cc1c(O)c(C)c2c(c1O)C(=O)OC(C)(O)[C@H]2C (stereo partly specified)
A. 11.4

----------
Test: Selectivity index, ratio of IC50 for human A549 cells to IC50 for chloroquine-resistant Plasmodium falciparum K1
Assay type: toxicity, cell-based
Conditions: read-out: Ratio IC50
measuredMetric: selectivity ratio

Q. // query selectivity ratio value for entry Cc1c(O)c(C)c2c(c1O)C(=O)OC(C)(O)[C@H]2C (stereo partly specified)
A. 18.3

----------
Test: Selectivity index, ratio of IC50 for human MRC5 cells to IC50 for chloroquine-resistant Plasmodium falciparum K1
Type: toxicity, cell-based
Conditions: read-out: Ratio IC50
measuredMetric: selectivity ratio
Give bare numbers.

Q. // query selectivity ratio value for entry Cc1c(O)c(C)c2c(c1O)C(=O)OC(C)(O)[C@H]2C (stereo partly specified)
A. 1.4
